- TEST SUMMARY: PK profile in male CD1 mice
- Type: in vivo
- ASSAY CONDITIONS: mouse, po, 30 mg/kg, single dose, mean plasma
RECORDED METRIC: half-life (h)

INSERT INTO results (smiles_representation, test_result) VALUES
  ('C=CC(=O)N1CCN(c2cc(OCC34CCCN3CCC4)nc3cc(-c4cccc5cccc(Cl)c45)cnc23)C[C@@H]1CC#N', 2.85);

----------
- TEST SUMMARY: PK profile in male CD1 mice
- Type: in vivo
- ASSAY CONDITIONS: mouse, iv, 3 mg/kg, i.v., single dose, mean plasma, read-out: MRT0-inf
RECORDED METRIC: MRT inf (h)

INSERT INTO measurements (compound, recorded_metric, test_result) VALUES
  ('C=CC(=O)N1CCN(c2cc(OCC34CCCN3CCC4)nc3cc(-c4cccc5cccc(Cl)c45)cnc23)C[C@@H]1CC#N [Example 5]', 'MRT inf', 1.77);

----------
- TEST SUMMARY: PK profile in male CD1 mice
- Type: in vivo
- ASSAY CONDITIONS: mouse, po, 30 mg/kg, p.o., single dose, mean plasma, read-out: MRT0-inf
- Description: PK Profile in male CD1 mice:
RECORDED METRIC: MRT inf (h)

INSERT INTO results (smiles_representation, test_result) VALUES
  ('C=CC(=O)N1CCN(c2cc(OCC34CCCN3CCC4)nc3cc(-c4cccc5cccc(Cl)c45)cnc23)C[C@@H]1CC#N', 4.79);

----------
- TEST SUMMARY: PK profile in male CD1 mice
- Type: in vivo
- ASSAY CONDITIONS: mouse, iv, 3 mg/kg, single dose, mean plasma
RECORDED METRIC: clearance (mL/min/kg)

INSERT INTO assay_data (molecule, recorded_metric, test_result) VALUES
  ('C=CC(=O)N1CCN(c2cc(OCC34CCCN3CCC4)nc3cc(-c4cccc5cccc(Cl)c45)cnc23)C[C@@H]1CC#N [Example 5]', 'clearance', 72.4);

----------
- TEST SUMMARY: PK profile in male CD1 mice
- Assay type: in vivo
- ASSAY CONDITIONS: mouse, plasma, oral, 30 mg/kg, p.o., single dose vs 3 mg/kg i.v.
RECORDED METRIC: bioavailability (%)

INSERT INTO assay_data (smiles_representation, recorded_metric, unit, test_result) VALUES
  ('C=CC(=O)N1CCN(c2cc(OCC34CCCN3CCC4)nc3cc(-c4cccc5cccc(Cl)c45)cnc23)C[C@@H]1CC#N', 'bioavailability', '%', 21.7);

----------
- TEST SUMMARY: PK profile in male CD1 mice
- Assay type: in vivo
- ASSAY CONDITIONS: mouse, po, 30 mg/kg, single dose, mean plasma
RECORDED METRIC: Cmax

INSERT INTO results (smiles_representation, test_result) VALUES
  ('C=CC(=O)N1CCN(c2cc(OCC34CCCN3CCC4)nc3cc(-c4cccc5cccc(Cl)c45)cnc23)C[C@@H]1CC#N', '249 ng/mL');

----------
- Tested on: MIA PaCa-2 cells
- TEST SUMMARY: CellTiter-Glo viability assay
- Type: cell-based
- ASSAY CONDITIONS: Homo sapiens, 72 hours, read-out: CTG Assay IC50 Values
pIC50: −log10 of the molar value.
# Lookup of reported pIC50 keyed by entry
RECORDED METRIC: pIC50

INSERT INTO results (compound, test_result) VALUES
  ('C=CC(=O)N1CCN(c2cc(OCC34CCCN3CCC4)nc3cc(-c4cccc5cccc(Cl)c45)cnc23)C[C@@H]1CC#N', 5.54),
  ('CN[C@@H]1C[C@H]2O[C@@](C)([C@@H]1OC)n1c3ccccc3c3c4c(c5c6ccccc6n2c5c31)C(=O)NC4 [Staurosporine, staurosporine, reference compound]', 6.60);

----------
- SYSTEM TESTED: KRAS G12C (Homo sapiens, UniProt P01116, G12C)
- TEST SUMMARY: KRAS G12C/SOS1 nucleotide exchange assay (Bodipy-GDP to GTP exchange)
- Assay type: biochemical
- Parameters: KRAS G12C or KRAS G12D (aa 2-169, expressed in E. coli); His-tag (TEV cleavable) (N); purchased Reaction Biology Corporation (RBC), which ran the assay MSC-11-502 (SOS1 only; none given for KRAS); host or cells: E. coli
- ASSAY CONDITIONS: SOS1-mediated Bodipy-GDP/KRAS G12C exchange; dRFU analysis method for covalent inhibitors; 30 min pre-incubation at RT; 0.5% DMSO
- Sequence (P01116 2-169 G12C): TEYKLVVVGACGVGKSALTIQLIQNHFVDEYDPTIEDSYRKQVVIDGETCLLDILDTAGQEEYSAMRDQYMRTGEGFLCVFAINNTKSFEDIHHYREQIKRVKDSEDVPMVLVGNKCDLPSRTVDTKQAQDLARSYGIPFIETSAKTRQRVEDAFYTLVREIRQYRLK
Quick list: IC50 per entry.
RECORDED METRIC: IC50

INSERT INTO results (smiles_representation, test_result) VALUES
  ('C=CC(=O)N1CCN(c2cc(OC[C@@]34CCCN3C[C@H](F)C4)nc3cc(-c4cccc5cccc(Cl)c45)cnc23)C[C@@H]1CC#N', '31 nM'),
  ('C=CC(=O)N1CCN(c2cc(OCC34CCCN3CCC4)nc3cc(-c4cccc5cccc(Cl)c45)cnc23)C[C@@H]1CC#N', '38 nM'),
  ('C=C(F)C(=O)N1CCN(c2cc(OCC34CCCN3CCC4)nc3cc(-c4cccc5cccc(Cl)c45)cnc23)C[C@@H]1CC#N', '59 nM'),
  ('C=C(F)C(=O)N1CCN(c2cc(OC[C@@H]3CCCN3C)nc3cc(-c4cccc5cccc(Cl)c45)cnc23)C[C@@H]1CC#N', '130 nM'),
  ('C=C(F)C(=O)N1CCN(c2cc(OC[C@@]34CCCN3C[C@H](F)C4)nc3cc(-c4cccc5cccc(Cl)c45)cnc23)C[C@@H]1CC#N', '65 nM'),
  ('C=CC(=O)N1CCN(c2cc(OC[C@@H]3CCCN3C)nc3cc(-c4cccc5cccc(Cl)c45)cnc23)C[C@@H]1CC#N', '38 nM');

----------
- SYSTEM TESTED: KRAS G12C (Homo sapiens, UniProt P01116, G12C)
- TEST SUMMARY: NanoBRET target engagement cellular assay in transiently transfected HEK293 cells
- Type: cell-based
- Design: expressed in transfected cells; host or cells: HEK293, transiently transfected
- ASSAY CONDITIONS: RAS tracer K2 1 μM, 2 hours at 37° C.
- Procedure: KRAS G12C cellular activity was determined in a target engagement cellular assay (NanoBRET™) in transiently transfected HEK293 cells by Reaction Biology Corporation (RBC), 1 Great Valley Parkway, Suite 2 Malvern, PA 19355, USA. HEK293 were cultivated to 70-80% confluence prior to the assay followed by trypsinizing and collection of the cells. BI-2852 was used as the KRAS G12C reference compound. […]
- Sequence (P01116 1-186 isoform P01116-2 G12C limits assumed): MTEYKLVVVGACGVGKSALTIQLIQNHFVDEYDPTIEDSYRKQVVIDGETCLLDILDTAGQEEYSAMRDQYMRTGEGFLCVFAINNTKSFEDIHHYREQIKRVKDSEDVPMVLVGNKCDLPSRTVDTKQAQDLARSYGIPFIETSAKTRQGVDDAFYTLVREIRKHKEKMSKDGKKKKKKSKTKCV
- Sequence (P01116 1-186 isoform P01116-2 G12C limits assumed): as above
RECORDED METRIC: IC50 (nM)

INSERT INTO results (compound, unit, result_operator, test_result) VALUES
  ('Cn1cnc(Cn2ccc3ccc(CNCc4[nH]c5ccccc5c4[C@H]4NC(=O)c5ccc(O)cc54)cc32)c1 [BI-2852, reference compound]', 'nM', '=', 320),
  ('C=CC(=O)N1CCN(c2cc(OC[C@@H]3CCCN3C)nc3cc(-c4cccc5cccc(Cl)c45)cnc23)C[C@@H]1CC#N [Example 1]', 'nM', '=', 4.4),
  ('C=CC(=O)N1CCN(c2cc(OCC34CCCN3CCC4)nc3cc(-c4cccc5cccc(Cl)c45)cnc23)C[C@@H]1CC#N [Example 5]', 'nM', '<', 0.5),
  ('C=C(F)C(=O)N1CCN(c2cc(OCC34CCCN3CCC4)nc3cc(-c4cccc5cccc(Cl)c45)cnc23)C[C@@H]1CC#N [Example 6]', 'nM', '=', 334);

----------
- TEST SUMMARY: PK profile in male CD1 mice
- Format: in vivo
- ASSAY CONDITIONS: mouse, iv, 3 mg/kg, single dose, mean plasma
RECORDED METRIC: C0 (ng/mL)

INSERT INTO results (smiles_representation, recorded_metric, unit, test_result) VALUES
  ('C=CC(=O)N1CCN(c2cc(OCC34CCCN3CCC4)nc3cc(-c4cccc5cccc(Cl)c45)cnc23)C[C@@H]1CC#N', 'C0', 'ng/mL', 800);

----------
- SYSTEM TESTED: KRAS G12D (Homo sapiens, UniProt P01116, G12D)
- Construct: KRAS G12C or KRAS G12D (aa 2-169, expressed in E. coli); His-tag (TEV cleavable) (N); none given for KRAS)
- Sequence (P01116 2-169 G12D): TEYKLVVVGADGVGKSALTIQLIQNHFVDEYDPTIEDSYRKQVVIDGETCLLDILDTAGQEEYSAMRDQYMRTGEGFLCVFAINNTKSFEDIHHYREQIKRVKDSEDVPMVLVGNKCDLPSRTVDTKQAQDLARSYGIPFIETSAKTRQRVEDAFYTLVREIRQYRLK
- TEST SUMMARY: KRAS G12D/SOS1 nucleotide exchange assay (Bodipy-GDP to GTP exchange)
- ASSAY CONDITIONS: SOS1-mediated Bodipy-GDP/KRAS G12D exchange; rate constant method (plateau = 0) for reversible inhibitors; 30 min pre-incubation at RT; 0.5% DMSO
- Experimental: The biological activity of the Examples was determined in a KRAS The assay evaluates the SOS1-mediated Bodipy-GDP to GTP exchange observed with KRAS G12C and KRAS G12D. The compound pre-incubation time was 30 min at RT and the curve fits were performed when the activities at the highest concentration of compounds were less than 65%. […] Data Analysis: The fluorescence data was normalized using the equation below and fitted to “one phase exponential decay” equation using GraphPad prism software. […]
RECORDED METRIC: IC50 (nM)

INSERT INTO results (smiles_representation, unit, test_result) VALUES
  ('CC(=O)c1c(F)ccc2cc(O)cc(-c3cnc4c(N5C[C@H]6CC[C@@H](C5)N6)cc(OC[C@@]56CCCN5C[C@H](F)C6)nc4c3)c12', 'nM', 1500),
  ('Oc1cc(-c2cnc3c(N4C[C@H]5CC[C@@H](C4)N5)cc(OCC45CCCN4CCC5)nc3c2)c2ccccc2c1', 'nM', 1000);

Reference for the values: patent US20260216179A1
